Would you kindly list DC50 for each of these compounds?
Biological target: Nanoluciferase-BRD9 fusion protein (3×FLAG-NLuc-BRD9) in SYO-1 cells (Homo sapiens, UniProt Q9H8M2)
Construct: expressed in transfected cells; host or cells: SYO-1
Sequence (Q9H8M2 1-597): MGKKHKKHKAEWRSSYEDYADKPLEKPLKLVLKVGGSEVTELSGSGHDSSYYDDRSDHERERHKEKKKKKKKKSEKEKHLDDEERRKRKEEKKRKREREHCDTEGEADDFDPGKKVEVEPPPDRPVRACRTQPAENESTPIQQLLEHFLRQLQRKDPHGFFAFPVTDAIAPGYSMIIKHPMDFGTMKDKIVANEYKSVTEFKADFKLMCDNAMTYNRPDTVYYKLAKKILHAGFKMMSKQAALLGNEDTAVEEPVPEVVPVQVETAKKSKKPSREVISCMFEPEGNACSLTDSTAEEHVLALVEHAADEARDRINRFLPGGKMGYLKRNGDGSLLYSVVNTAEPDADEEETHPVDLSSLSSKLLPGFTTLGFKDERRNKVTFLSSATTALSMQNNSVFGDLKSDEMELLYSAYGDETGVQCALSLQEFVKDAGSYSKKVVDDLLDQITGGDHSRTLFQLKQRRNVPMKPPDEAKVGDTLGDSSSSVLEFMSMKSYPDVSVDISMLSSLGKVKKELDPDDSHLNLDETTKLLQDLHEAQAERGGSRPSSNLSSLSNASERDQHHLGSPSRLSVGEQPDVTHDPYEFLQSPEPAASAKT
Test: SYO1 BRD9 NanoLuc Degradation Assay
Assay type: cell-based
Conditions: Table 6B; SYO-1 cells expressing 3×FLAG-NLuc-BRD9, 6 hours incubation, 1 μM top dose; read-out: SYO1 BRD9-NanoLuc degradation IC50

Prompt: # input compound: C=CCn1cc(-c2cc(OC)c(CN3CCN(CCC4CCN(c5ccc6c(c5)C(=O)N(C5CCC(=O)NC5=O)C6=O)CC4)CC3)c(OC)c2)c2cc(N(C)C)ncc2c1=O (centres unmarked) ; wanted: its DC50
Response: < 0.01 µM

Prompt: Then COc1cc(-c2cn(C)c(=O)c3cnc(N(C)C)cc23)cc(OC)c1CN1CCC(CCN2Cc3cc4c(cc3C2)C(=O)N(C2CCC(=O)NC2=O)C4=O)CC1 (centres unmarked) ?
Response: < 0.01 µM

Prompt: Next entry: COc1cc(-c2cn(C)c(=O)c3ccc(N4CCC4)cc23)cc(OC)c1CN1CCC(N2CCC(c3ccc4c(c3)CN(C3CCC(=O)NC3=O)C4=O)CC2)CC1 (centres unmarked)
Response: ≥ 1 µM

Prompt: // repeat for COc1cc(-c2cn(C)c(=O)c3cnc(N(C)C)cc23)cc(OC)c1CN1CCC(C(C)(C)N2CCC3(CC2)CC(Oc2ccc4c(c2)C(=O)N(C2CCC(=O)NC2=O)C4=O)C3)CC1 (centres unmarked) and report
Response: < 0.01 µM

Prompt: Please give the result for COc1cc(-c2cn(C)c(=O)c3cnc(N(C)C)cc23)cc(OC)c1CN1CCC(CN2CCC3(CC2)CC(Oc2ccc4c(c2)CN(C2CCC(=O)NC2=O)C4=O)C3)CC1 (centres unmarked) too.
Response: < 0.01 µM
